Test system: U2OS
Test Name: Cytotoxicity against human U2OS cells assessed as reduction in cell viability incubated for 48 hrs by CellTiter-Blue reagent based […] assay
Type: functional
Parameter: IC50

1) Nc1ncnc2c1ncn2[C@@H]1C[C@@H](O)[C@H](CN2CCOCC2)O1
≥ 50 µM
2) Nc1nc(-c2ccsc2)nc2c1ncn2[C@@H]1O[C@H](CO)[C@@H](O)[C@@H]1F
≥ 50 µM
3) Nc1nc(-c2ccncc2)nc2c1ncn2[C@@H]1O[C@H](CO)[C@@H](O)[C@@H]1F
≥ 50 µM
4) Nc1ncnc2c1ncn2[C@@H]1O[C@H](C(=O)O)[C@@H](O)[C@H]1F
≥ 50 µM
5) Nc1nc(-c2cccnc2)nc2c1ncn2[C@H]1C[C@H](O)[C@@H](CO)O1
162 µM

Value of IC50 reported for the molecule Nc1nc(Cl)nc2c1ncn2[C@H]1C[C@H](O)[C@@H](CO)O1 is ≥ 50 µM

The molecule listed as Nc1nc(N2CCOCC2)nc2c1ncn2[C@@H]1O[C@H](CN2CCOCC2)[C@@H](O)[C@@H]1F shows IC50 equal to ≥ 100 µM

Per the record, Nc1nc(-c2cccnc2)nc2c1ncn2[C@@H]1O[C@H](CO)[C@@H](O)[C@@H]1F has IC50 of ≥ 400 µM

Input Nc1nc(-c2ccsc2)nc2c1ncn2[C@H]1C[C@H](O)[C@@H](CO)O1 . Output IC50: ≥ 50 µM

* * *

Test Name: Cytotoxicity against human TC71 cells assessed as reduction in cell viability incubated for 48 hrs by CellTiter-Blue reagent based […] assay
Format: functional
Assay Setup: TC-71, 48 h
# Lookup of reported pIC50 keyed by entry
Interpret pIC50 as the negative base-10 log of the concentration measured in mol/L.

1) CS(=O)(=O)C[C@H]1O[C@@H](n2cnc3c(N)nc(Cl)nc32)C[C@@H]1O
4.44

pIC50 reported for this compound Nc1nc(-c2cccnc2)nc2c1ncn2[C@H]1C[C@H](O)[C@@H](CO)O1 : 4.53

* * *

Test system: U2OS
Test Name: Cytotoxicity against human U2OS cells assessed as reduction in cell viability incubated for 48 hrs by CellTiter-Blue reagent based […] assay
Type: functional
pIC50: −log10 of the molar value.
We begin with a simple list: items and their reported pIC50.

1) Nc1ncnc2c1ncn2[C@@H]1O[C@H](C(=O)O)[C@@H](O)[C@@H]1F
≤ 4.30
2) Nc1nc(-c2ccoc2)nc2c1ncn2[C@H]1C[C@H](O)[C@@H](CO)O1
3.70
3) CSC[C@H]1O[C@@H](n2cnc3c(N)nc(SC)nc32)[C@@H](F)[C@@H]1O
≤ 4.30
4) Nc1nc(Cl)nc2c1ncn2[C@@H]1O[C@H](CO)[C@@H](O)[C@@H]1F [CLOFARABINE]
≤ 4.30

So, Nc1nc(Cl)nc2c1ncn2[C@@H]1O[C@H](COC(C(=O)O)C(=O)O)[C@@H](O)[C@@H]1F ? Its pIC50 was ≤ 3.40

* * *

Test Name: Cytotoxicity against human TC71 cells assessed as reduction in cell viability incubated for 48 hrs by CellTiter-Blue reagent based […] assay
Assay type: functional
Assay Setup: TC-71, 48 h
pIC50: −log10 of the molar value.
Parameter: pIC50

1) Nc1ncnc2c1ncn2[C@H]1C[C@H](O)[C@@H](C(=O)O)O1
≤ 4.30
2) Nc1nc(Cl)nc2c1ncn2[C@H]1C[C@H](O)[C@@H](CO)O1
5.96

For record CSC[C@H]1O[C@@H](n2cnc3c(N)nc(SC)nc32)[C@@H](F)[C@@H]1O the listed pIC50 is ≤ 4.30

Entry under test: Nc1nc(-c2ccsc2)nc2c1ncn2[C@@H]1O[C@H](CO)[C@@H](O)[C@@H]1F . Its pIC50 was ≤ 4.30

* * *

Test Name: Cytotoxicity against human TC71 cells assessed as reduction in cell viability incubated for 48 hrs by CellTiter-Blue reagent based […] assay
Assay type: functional
Assay Setup: TC-71, 48 h
pIC50: −log10 of the molar value.
Parameter: pIC50

1. Nc1nc(-c2cccnc2)nc2c1ncn2[C@@H]1O[C@H](CO)[C@@H](O)[C@@H]1F
4.70

Value of pIC50 reported for the compound Nc1nc(Cl)nc2c1ncn2[C@@H]1O[C@H](CN2CCOCC2)[C@@H](O)[C@@H]1F is ≤ 4.00

* * *

Test Name: Cytotoxicity against human HEK293 cells assessed as reduction in cell viability incubated for 48 hrs by CellTiter-Blue reagent based […] assay
Assay type: toxicity
Parameter: IC50 at 48 h

1) Nc1nc(-c2cccnc2)nc2c1ncn2[C@@H]1O[C@H](CO)[C@@H](O)[C@@H]1F
> 368 µM

Turning to the following compound.
The measured IC50 at 48 h associated with Nc1nc(Cl)nc2c1ncn2[C@@H]1O[C@H](COC(C(=O)O)C(=O)O)[C@@H](O)[C@@H]1F reads > 341 µM

* * *

Test Name: Cytotoxicity against human SK-ES cells assessed as reduction in cell viability incubated for 48 hrs by CellTiter-Blue reagent based […] assay
Type: functional
This section presents compounds with their documented IC50 values.

1) Nc1nc(-c2cccnc2)nc2c1ncn2[C@@H]1O[C@H](CO)[C@@H](O)[C@@H]1F
60 µM

Nc1nc(Cl)nc2c1ncn2[C@@H]1O[C@H](COC(C(=O)O)C(=O)O)[C@@H](O)[C@@H]1F yielded IC50 of 27 µM

* * *

System: RD
Test Name: Cytotoxicity against human RD cells assessed as reduction in cell viability incubated for 48 hrs by CellTiter-Blue reagent based […] assay
Format: functional
pIC50: −log10 of the molar value.
Measured pIC50 values are reported for all entries that follow.

1) Nc1nc(-c2cccnc2)nc2c1ncn2[C@@H]1O[C@H](CO)[C@@H](O)[C@@H]1F
< 3.40

In the following, a different compound is considered.
The value of pIC50 measured for the compound Nc1nc(Cl)nc2c1ncn2[C@@H]1O[C@H](COC(C(=O)O)C(=O)O)[C@@H](O)[C@@H]1F turned out to be < 3.40

* * *

Entries annotated with measured IC50
Test Name: Cytotoxicity against human TC71 cells assessed as reduction in cell viability incubated for 48 hrs by CellTiter-Blue reagent based […] assay
Type: functional
Assay Setup: TC-71, 48 h

The compound listed as Nc1nc(Cl)nc2c1ncn2[C@H]1C[C@H](O)[C@@H](CN2CCOCC2)O1 has a reported IC50 of ≥ 100 µM

The reported value for Nc1nc(-c2ccoc2)nc2c1ncn2[C@@H]1O[C@H](CO)[C@@H](O)[C@@H]1F in terms of IC50 is ≥ 50 µM

# IC50 of Nc1ncnc2c1ncn2[C@H]1C[C@H](O)[C@@H](CN2CCOCC2)O1 = ≥ 50 µM

* * *

List of pIC50 values.
Test Name: Cytotoxicity against human TC71 cells assessed as reduction in cell viability incubated for 48 hrs by CellTiter-Blue reagent based […] assay
Assay type: functional
Assay Setup: TC-71, 48 h
pIC50: −log10 of the molar value.

1) Nc1nc(Cl)nc2c1ncn2[C@H]1C[C@H](O)[C@@H](COc2cc(C(=O)O)cc(C(=O)O)c2)O1
≤ 4.00

For reference, reported pIC50 for CS(=O)(=O)C[C@H]1O[C@@H](n2cnc3c(N)nc(Cl)nc32)[C@@H](F)[C@@H]1O stands at 4.50

response.value for Nc1ncnc2c1ncn2[C@@H]1O[C@H](C(=O)O)[C@@H](O)[C@@H]1F (field: pIC50) = ≤ 4.30

The molecule identified as Nc1ncnc2c1ncn2[C@@H]1C[C@@H](O)[C@H](CN2CCOCC2)O1 registered its pIC50 at ≤ 4.30

* * *

Test Name: Cytotoxicity against human TC71 cells assessed as reduction in cell viability incubated for 48 hrs by CellTiter-Blue reagent based […] assay
Assay type: functional
Assay Setup: TC-71, 48 h
Parameter: IC50

Examples with their reported IC50 follow.
1. Nc1nc(-c2ccsc2)nc2c1ncn2[C@H]1C[C@H](O)[C@@H](CO)O1
≥ 50 µM
2. Nc1nc(Cl)nc2c1ncn2[C@@H]1O[C@H](CO)[C@@H](O)[C@@H]1F
0.09 µM
3. Nc1nc(Cl)nc2c1ncn2[C@@H]1O[C@H](COC(C(=O)O)C(=O)O)[C@@H](O)[C@@H]1F
5.17 µM
4. Nc1nc(N2CCOCC2)nc2c1ncn2[C@@H]1O[C@H](CN2CCOCC2)[C@@H](O)[C@@H]1F
≥ 100 µM

Kindly note the recorded IC50 for Nc1nc(Cl)nc2c1ncn2[C@@H]1O[C@H](COc2cc(C(=O)O)cc(C(=O)O)c2)[C@@H](O)[C@@H]1F , which is 96.7 µM

What the record says about C=C1O[C@@H](n2cnc3c(N)nc(N4CCOCC4)nc32)[C@@H](F)[C@@H]1O : IC50 is ≥ 100 µM

The reported value for Nc1ncnc2c1ncn2[C@@H]1O[C@H](CN2CCOCC2)[C@@H](O)[C@@H]1F in terms of IC50 is ≥ 50 µM

Documented IC50 of Nc1nc(-c2ccoc2)nc2c1ncn2[C@H]1C[C@H](O)[C@@H](CO)O1 : 67.8 µM

Noted for Nc1ncnc2c1ncn2[C@@H]1C[C@@H](O)[C@H](C(=O)O)O1 : its IC50 reads ≥ 50 µM

Summary for this compound, Nc1nc(-c2ccncc2)nc2c1ncn2[C@H]1C[C@H](O)[C@@H](CO)O1 : IC50 is ≥ 50 µM

Entry Nc1ncnc2c1ncn2[C@@H]1O[C@H](CN2CCOCC2)[C@@H](O)[C@H]1F — recorded IC50 = ≥ 50 µM

Reported IC50 of Nc1ncnc2c1ncn2[C@@H]1O[C@H](C(=O)O)[C@@H](O)[C@H]1F : ≥ 50 µM

# IC50 (compound: Nc1nc(-c2ccncc2)nc2c1ncn2[C@@H]1O[C@H](CO)[C@@H](O)[C@@H]1F ) is ≥ 50 µM
